Test system: GFPY40 reporter (GFP containing an amber codon) in HEK293 cells stably expressing pylRS
test.description: Amber suppression-dependent GFP expression (GFPY40 reporter), transient transfection, flow cytometry
Assay type: cell-based
test.conditions: 1 ug PCR product of each construct; lys azide nnAA; three days
property.name: GFP MFI, FIG. 8

>>> readout_value("7SL tRNA A1: tRNA-A1 downstream of the 7SL promoter 5′ region (nucleic acid, Synthetic sequence 7SL tRNA-A1 construct, tRNA-A1 downstream of the 7SL promoter 5′ region) DNA: CCCAGTTGATGACGTCACCATACCACAGCTTCTAGTGCTATTCTGCGCCGGTATCCGACCACCAGGAAACCTGGTCATGTAGATCGAATGGACTCTAAATCCGTTCAGCCGGGTTAGATTCCCGGGGTTTCCGGACAAGTGCGGTTTTT")
"114,393"
>>> readout_value("7SL AB: tRNA-AB downstream of the 7SL promoter 5′ region (nucleic acid, Synthetic sequence 7SL tRNA-AB construct, tRNA-AB downstream of the 7SL promoter 5′ region) DNA: CCCAGTTGATGACGTCACCATACCACAGCTTCTAGTGCTATTCTGCGCCGGTATCCGACCACCAGGAAACCTGGTCATGTAGATCGAATGGACTCTAAATCCGTTCAGCCGGGTTCGATTCCCGGGGTTTCCGGACAAGTGCGGTTTTT")
"210,380"
